- Read-out: Interferon-gamma inducible Protein 10 (IP10), CXCL10 (gene 3627)
- Measurement notes: BSK_hDFCGF_IP10: BioMAP Diversity Plus: hDFCGF Assay for Interferon-gamma inducible Protein 10 (IP10) Biomarker Activity (AID 2283053)
- Cond: primary human foreskin fibroblasts; actives raise or lower the signal
- Experimental: BSK_hDFCGF is a cell-based, multiplexed-readout assay that uses foreskin fibroblast, a human skin primary cell, with measurements taken at 24 hours after chemical dosing in a 96-well plate.BSK_hDFCGF_IP10 is an assay component measured in the BSK_hDFCGF assay. It measures IP-10 antibody related to regulation of gene expression using ELISA technology.Data from the assay component BSK_hDFCGF_IP10 was analyzed into 1 assay endpoint. […]
The source made the active and inactive calls. Rule for the calls: active = hit-call score of the fitted dose curve at least 0.9, where 1 is the maximum; inactive = score below 0.9.
In this exercise, the only acceptable responses are active, inactive

compound=COC(=O)c1c(C(F)F)nc(C(F)(F)F)c(C2=NCCS2)c1CC(C)C discrete_label=active
compound=CCCCOCN(C(=O)CCl)c1c(CC)cccc1CC discrete_label=active
compound=Clc1cccc(C(Cl)(Cl)Cl)n1 discrete_label=active

What did this assay record as the result for CCNP(=S)(OC)O/C(C)=C/C(=O)OC(C)C (stereo unspecified) ?
inactive

What did this assay record as the result for Nc1c(Cl)c(F)nc(OCC(=O)O)c1Cl ?
inactive

What did this assay record as the result for Cc1cnc(C2=NC(C)(C(C)C)C(=O)N2)c(C(=O)O)c1 (stereo unspecified) ?
inactive

What did this assay record as the result for CC1(C)C(C=C(Cl)Cl)C1C(=O)OC(C#N)c1cccc(Oc2ccccc2)c1 (stereo unspecified) ?
inactive

What did this assay record as the result for Clc1nc(Cl)nc(Nc2ccccc2Cl)n1 ?
active

What did this assay record as the result for CCCC(=NOCC)C1=C(O)CC(CC(C)SCC)CC1=O (stereo unspecified) ?
inactive

What did this assay record as the result for CCCCC(O)(Cn1cncn1)c1ccc(Cl)cc1Cl (stereo unspecified) ?
active

What did this assay record as the result for O=C(Nc1ccccc1-c1ccc(Cl)cc1)c1cccnc1Cl ?
inactive
